# test-summary: Interfacial tension of the lipid against water (measure of polarity)
# Format: physicochemical
# measurement-conditions: lower value = more polar oil
# Source text: Öle und Fette unterscheiden sich unter anderem in ihrer Polarität, welche schwierig zu definieren ist. Es wurde bereits vorgeschlagen, die Grenzflächenspannung gegenüber Wasser als Maß für den Polaritätsindex eines Öls bzw. einer Ölphase anzunehmen. Dabei gilt, daß die Polarität der betreffenden Ölphase umso größer ist, je niedriger die Grenzflächenspannung zwischen dieser Ölphase und Wasser ist. […]
observed-property: Grenzflächenspannungen gegen Wasser

Example results:
[[record]]
molecule = "CCCCCCCCCCCCCCCCCCOC(=O)CCCCCC [Tegosoft® SH, Stearyl Heptanoate]"
observed_property = "Grenzflächenspannungen gegen Wasser"
data_value = "28,7 mN/m"

[[record]]
molecule = "CCCCCCCCCCCCCC(=O)OCC(CCCCCCCC)CCCCCCCCCC (stereo not shown) [MOD, Octyldodeceyl Myristate]"
observed_property = "Grenzflächenspannungen gegen Wasser"
data_value = "22,1 mN/m"


Provide only the value of recorded Grenzflächenspannungen gegen Wasser for CCCCCCCCCCCCCCCCCC(=O)OC(C)C [Isopropylstearat, Isopropyl Stearate] 21,9 mN/m

Provide only the value of recorded Grenzflächenspannungen gegen Wasser for CCCCCCCCC(CO)CCCCCC (stereo not shown) [Isofol® 16, Hexyl Decanol] 24,3 mN/m
